The reported numbers originate from paper PMC6036117.

- assaySystem: Spa47Δ1-83 (Shigella flexneri, UniProt P0A1C1)
- Construct: The cDNA encoding Spa47Δ1-83 (84–430 aa) was amplified; 6xHis (pET28a, thrombin site) (N, cleaved yes); made in house; host or cells: E. coli Rosetta (DE3)
- protocolText: Isothermal titration calorimetry (ITC) of nucleotide binding to monomeric Spa47Δ1-83
- assayConditions: ITC, 25°C; ATP without Mg2+, other ligands with Mg2+
Can you tell me ΔH (enthalpy variation) for the items I'm about to list?
Numbers only, in kcal/mol.

INSERT INTO measurements (compound, measurednumber) VALUES
  ('Nc1ncnc2c1ncn2[C@@H]1O[C@H](COP(=O)(O)OP(=O)(O)O)[C@@H](O)[C@H]1O', -17.24),
  ('Nc1ncnc2c1ncn2[C@@H]1O[C@H](COP(=O)(O)OP(=O)(O)OP(=O)(O)O)[C@@H](O)[C@H]1O', -4.99),
  ('Nc1ncnc2c1ncn2[C@@H]1O[C@H](CO[P@](=O)(O)O[P@](=O)(O)O[P@@](=O)(O)S)[C@@H](O)[C@H]1O', -8.16);

Next item in the queue.
Please give the measured ΔH (enthalpy variation) for this compound: Nc1ncnc2c1ncn2[C@@H]1O[C@H](COP(=O)(O)OP(=O)(O)NP(=O)(O)O)[C@@H](O)[C@H]1O
-7.21

###

- assaySystem: Spa47Δ1-83 (Shigella flexneri, UniProt P0A1C1)
- Construct: The cDNA encoding Spa47Δ1-83 (84–430 aa) was amplified; 6xHis (pET28a, thrombin site) (N, cleaved yes); made in house; host or cells: E. coli Rosetta (DE3)
- protocolText: Isothermal titration calorimetry (ITC) of nucleotide binding to monomeric Spa47Δ1-83
- assayConditions: ITC, 25°C; ATP without Mg2+, other ligands with Mg2+
Could you please report measured Ka (affinity constant) for the items listed next?

Here's what some known entries look like.
INSERT INTO results (compound, assaysystem, result) VALUES
  ('Nc1ncnc2c1ncn2[C@@H]1O[C@H](COP(=O)(O)OP(=O)(O)O)[C@@H](O)[C@H]1O [ADP]', 'Spa47Δ1-83 (Shigella flexneri, UniProt P0A1C1)', '0.067±0.003 10^5. M^-1'),
  ('Nc1ncnc2c1ncn2[C@@H]1O[C@H](COP(=O)(O)OP(=O)(O)OP(=O)(O)O)[C@@H](O)[C@H]1O [ATP]', 'Spa47Δ1-83 (Shigella flexneri, UniProt P0A1C1)', '0.443±0.070 10^5. M^-1'),
  ('Nc1ncnc2c1ncn2[C@@H]1O[C@H](CO[P@](=O)(O)O[P@](=O)(O)O[P@@](=O)(O)S)[C@@H](O)[C@H]1O [ATPγS]', 'Spa47Δ1-83 (Shigella flexneri, UniProt P0A1C1)', '0.472±0.017 10^5. M^-1');

Let us examine a further case.
Fill blank: measured Ka (affinity constant) of the compound Nc1ncnc2c1ncn2[C@@H]1O[C@H](COP(=O)(O)OP(=O)(O)NP(=O)(O)O)[C@@H](O)[C@H]1O [AMPPNP] is ____.
0.031±0.001 10^5. M^-1

###

- assaySystem: Spa47Δ1-83 (Shigella flexneri)
- Construct: The cDNA encoding Spa47Δ1-83 (84–430 aa) was amplified; 6xHis (pET28a, thrombin site) (N, cleaved yes); made in house; host or cells: E. coli Rosetta (DE3)
- protocolText: Isothermal titration calorimetry (ITC) of nucleotide binding to monomeric Spa47Δ1-83
recordedMetric: pKd
Answers are plain numbers, as −log10 of the molar value.

# lookup: pKd of Nc1ncnc2c1ncn2[C@@H]1O[C@H](CO[P@](=O)(O)O[P@](=O)(O)O[P@@](=O)(O)S)[C@@H](O)[C@H]1O
4.67
